The reported measurements were obtained from patent US20250250357A1.

Target: T1, human MSLN-FL-his protein (human, UniProt Q13421 296-580)
T1 construct: made in HEK293E cells, purified on nickel column; also called hMSLN-FL-his; human MSLN full-length protein; not shown: His tag
T1 sequence (Q13421 other isoform, or with tags, fused parts or gaps): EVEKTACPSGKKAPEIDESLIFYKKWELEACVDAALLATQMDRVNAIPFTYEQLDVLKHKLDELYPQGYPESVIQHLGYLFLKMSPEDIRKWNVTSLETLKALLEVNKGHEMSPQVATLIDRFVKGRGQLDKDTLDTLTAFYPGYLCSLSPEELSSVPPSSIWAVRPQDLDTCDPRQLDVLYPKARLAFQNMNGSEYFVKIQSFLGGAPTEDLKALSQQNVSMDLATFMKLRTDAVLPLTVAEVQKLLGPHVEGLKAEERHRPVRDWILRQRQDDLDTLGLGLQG
Assay: competitive ELISA; row F8-31.22; note: test concentration or dose not given here

# binder, competition rate
rows = [
    ("S009-F8-12.13 (antibody, human IgG1, kappa, V domains shown, human-murine chimeric antibody, human IgG1/kappa constant regions) VH: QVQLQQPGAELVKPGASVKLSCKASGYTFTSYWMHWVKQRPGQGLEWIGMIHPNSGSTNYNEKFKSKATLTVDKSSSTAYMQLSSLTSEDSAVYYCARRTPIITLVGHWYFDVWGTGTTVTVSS VL: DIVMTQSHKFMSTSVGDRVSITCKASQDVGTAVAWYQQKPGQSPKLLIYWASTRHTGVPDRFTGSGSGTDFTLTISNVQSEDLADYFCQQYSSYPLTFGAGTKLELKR", "92.2%"),
    ("S009-F8-13.8 (antibody, human IgG1, kappa, V domains shown, human-murine chimeric antibody, human IgG1/kappa constant regions) VH: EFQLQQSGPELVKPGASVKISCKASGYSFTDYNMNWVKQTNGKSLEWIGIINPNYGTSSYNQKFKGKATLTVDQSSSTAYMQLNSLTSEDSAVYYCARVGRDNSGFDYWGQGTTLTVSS VL: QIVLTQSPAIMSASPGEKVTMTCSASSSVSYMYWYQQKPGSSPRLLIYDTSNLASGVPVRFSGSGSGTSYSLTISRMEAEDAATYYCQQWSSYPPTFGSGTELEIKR", "99%"),
    ("S009-F8-31.22 (antibody, human IgG1, kappa, V domains shown, human-murine chimeric antibody, human IgG1/kappa constant regions) VH: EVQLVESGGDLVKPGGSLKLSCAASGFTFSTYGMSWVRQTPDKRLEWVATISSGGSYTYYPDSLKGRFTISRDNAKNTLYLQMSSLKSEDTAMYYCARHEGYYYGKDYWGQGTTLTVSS VL: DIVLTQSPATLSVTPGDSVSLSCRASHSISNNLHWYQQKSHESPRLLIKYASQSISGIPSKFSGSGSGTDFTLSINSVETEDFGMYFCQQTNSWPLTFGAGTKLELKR", "69.3%"),
    ("S009-F8-18.9 (antibody, human IgG1, kappa, V domains shown, human-murine chimeric antibody, human IgG1/kappa constant regions) VH: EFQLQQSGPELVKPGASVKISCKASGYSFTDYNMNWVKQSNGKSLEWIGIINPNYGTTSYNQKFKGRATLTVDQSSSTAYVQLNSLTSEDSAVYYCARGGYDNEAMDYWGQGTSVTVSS VL: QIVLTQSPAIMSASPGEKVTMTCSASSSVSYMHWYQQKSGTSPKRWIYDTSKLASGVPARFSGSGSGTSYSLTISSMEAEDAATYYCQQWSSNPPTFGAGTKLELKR", "98%"),
    ("S009-F8-27.1 (antibody, human IgG1, kappa, V domains shown, human-murine chimeric antibody, human IgG1/kappa constant regions) VH: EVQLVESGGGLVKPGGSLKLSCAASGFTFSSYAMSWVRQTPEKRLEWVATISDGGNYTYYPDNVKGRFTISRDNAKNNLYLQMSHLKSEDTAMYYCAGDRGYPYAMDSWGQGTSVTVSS VL: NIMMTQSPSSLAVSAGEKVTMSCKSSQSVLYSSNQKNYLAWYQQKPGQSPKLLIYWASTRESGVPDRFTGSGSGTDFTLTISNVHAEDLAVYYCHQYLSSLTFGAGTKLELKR", "-13.1%"),
    ("S009-F8-4.5 (antibody, human IgG1, kappa, V domains shown, human-murine chimeric antibody, human IgG1/kappa constant regions) VH: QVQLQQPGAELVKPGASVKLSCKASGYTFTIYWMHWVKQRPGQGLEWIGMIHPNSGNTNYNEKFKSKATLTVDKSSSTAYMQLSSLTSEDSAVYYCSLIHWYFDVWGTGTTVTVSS VL: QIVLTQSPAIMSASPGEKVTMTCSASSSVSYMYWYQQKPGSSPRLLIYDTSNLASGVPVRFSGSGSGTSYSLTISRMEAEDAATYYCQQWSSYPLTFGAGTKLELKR", "89.7%"),
    ("S009-F8-7.5 (antibody, human IgG1, kappa, V domains shown, human-murine chimeric antibody, human IgG1/kappa constant regions) VH: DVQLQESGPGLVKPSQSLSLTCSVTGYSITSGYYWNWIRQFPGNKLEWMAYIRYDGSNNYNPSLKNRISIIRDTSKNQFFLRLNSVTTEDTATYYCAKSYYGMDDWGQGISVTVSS VL: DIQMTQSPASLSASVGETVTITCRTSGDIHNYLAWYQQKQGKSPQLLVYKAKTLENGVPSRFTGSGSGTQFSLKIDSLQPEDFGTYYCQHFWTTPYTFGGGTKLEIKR", "-71.5%"),
]
